// provenance: PubChem BioAssay (EPA / NIEHS)

Read-out: Cellular tumor antigen p53 (Homo sapiens)
test: LTEA_HepaRG_TP53: Life Technologies and Expression Analysis (LTEA) Assay for Tumor Protein P53 (TP53) using HepaRG (AID 2283537)
condition: mRNA level, 48 h; actives raise or lower the signal
Active and inactive are the calls of the source. The calls were made as follows: active = hit-call score of the fitted dose curve at least 0.9, where 1 is the maximum; inactive = score below 0.9.
The categories you may choose from are active, inactive

# lookup: test call for `CC(=O)[O][Hg][c]1ccccc1`
active

What was the test verdict on `O=C(O)C(F)(F)C(F)(F)C(F)(F)C(F)(F)C(F)(F)C(F)(F)C(F)(F)C(F)(F)C(F)(F)C(F)(F)F` ?
inactive

# outcome recorded in this test, key = `Oc1cccc2cccnc12`
inactive

Tell me the recorded outcome of this test for `COc1cc(-c2ccc(N)c(OC)c2)ccc1N` .
inactive

Dear colleague, could you share the recorded outcome for `Cn1sc(Cl)cc1=O` when you have a moment?
inactive

Please share the test call associated with `CN(C)N=O` .
inactive
